Biological target: Fms(Y969C)(h) (Homo sapiens, UniProt P07333, Y969C)
Assay: Kinase Profiling Assay
Format: biochemical
Settings: peptide 100 μM
No end group written: not given here.
ASSAY_METRIC: % activity (%)

SEQUENCE_RECORD | TESTED_SYSTEM | RECORDED_NUMBER
FAKLAARLYRKALARQLGVAA [MMI-0300] | Fms(Y969C)(h) (Homo sapiens, UniProt P07333, Y969C) | 72
KAFAKLAARLYRKALARQLGVAA [MMI-0400] | Fms(Y969C)(h) (Homo sapiens, UniProt P07333, Y969C) | 91
YARAAARQARAKALARQLGVAA [MMI-0100] | Fms(Y969C)(h) (Homo sapiens, UniProt P07333, Y969C) | 126
YARAAARQARAKALNRQLGVA (Mammal) [MMI-0200] | Fms(Y969C)(h) (Homo sapiens, UniProt P07333, Y969C) | 88

###

Molecular target: Txk(h) (Homo sapiens, UniProt P42681)
Sequence (P42681 1-527): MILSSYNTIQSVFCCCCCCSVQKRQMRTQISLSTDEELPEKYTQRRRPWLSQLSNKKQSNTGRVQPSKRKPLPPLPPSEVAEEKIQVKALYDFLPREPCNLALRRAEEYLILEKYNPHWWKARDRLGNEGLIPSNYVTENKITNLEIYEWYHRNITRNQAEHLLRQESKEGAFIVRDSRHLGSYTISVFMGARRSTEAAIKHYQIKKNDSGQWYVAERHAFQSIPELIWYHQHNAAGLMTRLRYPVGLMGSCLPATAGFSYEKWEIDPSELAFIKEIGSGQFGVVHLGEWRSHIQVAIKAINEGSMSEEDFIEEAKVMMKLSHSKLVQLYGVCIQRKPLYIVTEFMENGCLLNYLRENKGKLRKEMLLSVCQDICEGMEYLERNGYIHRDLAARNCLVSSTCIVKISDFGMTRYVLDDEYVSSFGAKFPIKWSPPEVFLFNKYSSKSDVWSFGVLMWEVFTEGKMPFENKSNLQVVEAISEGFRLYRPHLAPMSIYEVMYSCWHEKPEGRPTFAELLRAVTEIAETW
Test: Kinase Profiling Assay
Assay type: biochemical
Details: peptide 100 μM
No end group written: not given here.
ASSAY_METRIC: % activity (%)

SEQUENCE_RECORD | RECORDED_NUMBER
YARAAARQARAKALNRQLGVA (Mammal) [MMI-0200] | 98
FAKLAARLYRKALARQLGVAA [MMI-0300] | 48
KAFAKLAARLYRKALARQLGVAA [MMI-0400] | 37
HRRIKAWLKKIKALARQLGVAA (Mammal) [MMI-0500] | 10
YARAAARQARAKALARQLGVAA [MMI-0100] | 87

###

Biological target: MSK1(h) (Homo sapiens)
Construct: purchased Millipore
Sequence (O75582 whole entry): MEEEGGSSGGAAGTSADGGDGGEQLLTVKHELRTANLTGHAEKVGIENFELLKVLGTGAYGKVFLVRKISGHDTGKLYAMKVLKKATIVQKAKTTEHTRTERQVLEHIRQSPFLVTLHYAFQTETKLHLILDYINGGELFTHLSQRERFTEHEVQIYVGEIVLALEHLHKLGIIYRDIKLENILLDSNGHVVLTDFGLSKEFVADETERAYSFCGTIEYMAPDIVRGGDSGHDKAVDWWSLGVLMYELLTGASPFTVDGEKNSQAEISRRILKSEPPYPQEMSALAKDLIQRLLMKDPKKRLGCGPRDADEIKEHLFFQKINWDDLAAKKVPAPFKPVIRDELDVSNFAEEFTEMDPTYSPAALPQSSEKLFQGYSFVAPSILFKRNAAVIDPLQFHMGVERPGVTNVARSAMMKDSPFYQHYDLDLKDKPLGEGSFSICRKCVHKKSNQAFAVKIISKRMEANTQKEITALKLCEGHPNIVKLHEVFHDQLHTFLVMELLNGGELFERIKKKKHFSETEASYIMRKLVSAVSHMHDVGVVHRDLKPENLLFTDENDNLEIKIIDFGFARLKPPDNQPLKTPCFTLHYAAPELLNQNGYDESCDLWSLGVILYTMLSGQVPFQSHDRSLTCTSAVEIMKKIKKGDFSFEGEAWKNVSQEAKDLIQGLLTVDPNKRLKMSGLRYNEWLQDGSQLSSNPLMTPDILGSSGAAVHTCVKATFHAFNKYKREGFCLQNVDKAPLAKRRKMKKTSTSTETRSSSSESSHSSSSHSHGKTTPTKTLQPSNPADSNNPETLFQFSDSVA
Assay: Kinase Profiling Assay
Format: biochemical
Details: peptide 100 μM
ASSAY_METRIC: % activity (%)

SEQUENCE_RECORD | ASSAY_METRIC | RECORDED_NUMBER
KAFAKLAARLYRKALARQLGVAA [MMI-0400] | % activity | 28
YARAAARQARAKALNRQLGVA (Mammal) [MMI-0200] | % activity | 50
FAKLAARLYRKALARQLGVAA [MMI-0300] | % activity | 32
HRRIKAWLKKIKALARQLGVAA (Mammal) [MMI-0500] | % activity | 8
